Biological target: Notum (Homo sapiens, UniProt Q6P988, C330S)
Construct: comprising amino acids S81–T451 with a C330S mutation; inferred from HisTrap purification and imidazole elution; made in house
Sequence (Q6P988 81-451 C330S): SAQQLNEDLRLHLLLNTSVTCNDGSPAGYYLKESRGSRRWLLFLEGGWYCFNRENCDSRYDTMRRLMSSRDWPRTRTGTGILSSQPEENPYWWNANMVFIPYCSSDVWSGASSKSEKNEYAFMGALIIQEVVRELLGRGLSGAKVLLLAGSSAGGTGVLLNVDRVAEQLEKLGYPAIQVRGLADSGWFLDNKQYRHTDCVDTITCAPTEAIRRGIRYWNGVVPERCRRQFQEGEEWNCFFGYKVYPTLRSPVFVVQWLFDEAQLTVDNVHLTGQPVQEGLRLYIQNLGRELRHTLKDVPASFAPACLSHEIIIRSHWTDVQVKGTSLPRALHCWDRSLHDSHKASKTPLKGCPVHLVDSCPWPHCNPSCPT
Test: Notum OPTS activity assay (cell-free biochemical)
Conditions: mean ± s.d. (n = 4), 40 min incubation at room temperature
pIC50: −log10 of the molar value.
# if value of pIC50 reaches 7, tag TRUE; if it stays below, tag FALSE

>>> class_assignment("CCOC(=O)CCC(=O)N1CCc2ccccc21 [Compound 3]")
"FALSE"
>>> class_assignment("O=C(O)CCC(=O)N1CCc2ccccc21 [Compound 2, 4-indolinyl-4-oxobutanoic acid]")
"FALSE"
>>> class_assignment("CC(C)OC(=O)CCC(=O)N1CCc2ccccc21 [Compound 6]")
"FALSE"
>>> class_assignment("O=C(CCC(=O)N1CCc2ccccc21)OCC(F)F [Compound 4]")
"TRUE"

src = paper PMC8365597
